Cited source: patent US9371331B2

System: H3K27me3 mark in HeLa cells
assay_summary: H3K27me3 Alpha Hela Assay (AlphaLISA)
Assay type: cell-based
test_context: Homo sapiens, 72 hrs, read-out: H3K27me3_Alpha_HeLa_ (EC50)
metric_name: EC50

| compound | study_target | EC50 |
| --- | --- | --- |
| COc1cc(C)[nH]c(=O)c1CNC(=O)c1c(C)n(C(C)C2CCOCC2)c2cc(Cl)ccc12 (single isomer, unassigned) | H3K27me3 mark in HeLa cells | < 400 nM |
| COc1cc(C)[nH]c(=O)c1CNC(=O)c1c(C)n(C(C)C(C)OC)c2ncccc12 (single isomer, unassigned) | H3K27me3 mark in HeLa cells | < 400 nM |
| COc1cc(C)[nH]c(=O)c1CNC(=O)c1c(C)n(C(C)C2CCOCC2)c2cc(-c3ccccc3)ccc12 (single isomer, unassigned) | H3K27me3 mark in HeLa cells | < 400 nM |

Task item: Item COc1cc(C)[nH]c(=O)c1CNC(=O)c1c(C)n(-c2cccc3ncccc23)c2ccccc12 has what recorded EC50?
Reply: 400 to 2000 nM

Task item: Item Cc1cc(C)c(CNC(=O)c2c(C)n(C(C)C3CCN(C4COC4)CC3)c3ccccc23)c(=O)[nH]1 (single isomer, unassigned) has what recorded EC50?
Reply: < 400 nM

Task item: Item COc1cc(C)[nH]c(=O)c1CNC(=O)c1c(C)n(C(C)C2CCNCC2)c2ncncc12 (racemic) has what recorded EC50?
Reply: 400 to 2000 nM

Task item: Item COc1cc(C)[nH]c(=O)c1CNC(=O)c1c(C)n(C(C)C2CCN(CC(C)(C)O)CC2)c2ccccc12 (single isomer, unassigned) has what recorded EC50?
Reply: 400 to 2000 nM

Task item: Item COc1cc(C)[nH]c(=O)c1CNC(=O)c1c(C)n(C(C)C2CCN(CCO)CC2)c2ccccc12 (single isomer, unassigned) has what recorded EC50?
Reply: 400 to 2000 nM

Task item: Item Cc1cc(C)c(CNC(=O)c2c(C)n(C(C)C3CCN(C)CC3)c3ccccc23)c(=O)[nH]1 (single isomer, unassigned) has what recorded EC50?
Reply: < 400 nM

Task item: Item COc1cc(C)[nH]c(=O)c1CNC(=O)c1c(C)n(C(C)C(C)OC)c2ccccc12 (racemic) has what recorded EC50?
Reply: < 400 nM

Task item: Item COc1cc(C)[nH]c(=O)c1CNC(=O)c1c(C)n(C(C)C2CCOCC2)c2cc(F)ccc12 (single isomer, unassigned) has what recorded EC50?
Reply: < 400 nM

Task item: Item COc1cc(C)[nH]c(=O)c1CNC(=O)c1c(C)n(C(C)C2CCN(C)CC2)c2ccccc12 (single isomer, unassigned) has what recorded EC50?
Reply: 400 to 2000 nM

Task item: Item COc1cc(C)[nH]c(=O)c1CNC(=O)c1c(C)n(C(C)C2CCN(C(C)C)CC2)c2ccccc12 (single isomer, unassigned) has what recorded EC50?
Reply: 400 to 2000 nM

====

Tested on: H3K27me3 mark in HeLa cells
assay_summary: H3K27me3 Alpha Hela Assay (AlphaLISA)
Type: cell-based
test_context: Homo sapiens, 72 hrs, read-out: H3K27me3_Alpha_HeLa_ (EC50)
metric_name: EC50

Task item: Tell me reported EC50 for COCC(C)(C)n1c(C)c(C(=O)NCc2c(OC)cc(C)[nH]c2=O)c2ccccc21 , tested with H3K27me3 mark in HeLa cells.
Reply: 400 to 2000 nM

Task item: Tell me reported EC50 for COc1cc(C)[nH]c(=O)c1CNC(=O)c1c(C)n(C(C)C2CCN(C(=O)OC(C)C)CC2)c2ccccc12 (single isomer, unassigned) , tested with H3K27me3 mark in HeLa cells.
Reply: < 400 nM

Task item: Tell me reported EC50 for COc1cc(C)[nH]c(=O)c1CNC(=O)c1c(C)n(C(C)C2CCC(S(=O)(=O)C(C)C)CC2)c2ccccc12 (single isomer, unassigned) , tested with H3K27me3 mark in HeLa cells.
Reply: < 400 nM
